experimental-system: Nicotinic acetylcholine receptor alpha2/beta4 (Homo sapiens, UniProt P02708+P30926)
procedure-summary: Positive allosteric modulation of human alpha2beta4 nAChR expressed in HEK cells preincubated for 15 mins followed by dihydro-beta-erythroidine hydrobromide addition by fluorometric analysis
parameter: EC50 (nM)
Field format: number, assumed nM, no unit text.

Field EC50 (entry O=C(N[C@@H]1CCCNC1)c1cc2cccc(Br)c2s1 ) reads 286

###

experimental-system: Glycine receptor alpha-3/beta (Homo sapiens, UniProt O75311+P48167)
procedure-summary: Positive allosteric modulation of human glycine alpha3beta receptor expressed in HEK293T cells assessed as glycine-induced increase in current response after 18 to 24 hrs by membrane potential blue dye based FLIPR assay
pEC50 by entry:
Kindly note that pEC50 refers to -log10 of the concentration in mol/L and answer with the value alone.

>  <structure>
C[C@H]1[C@H]2C(=O)N(C)c3ccncc3[C@H]2CN1S(=O)(=O)c1ccc2c(c1)OCO2

>  <experimental-system>
Glycine receptor alpha-3/beta (Homo sapiens, UniProt O75311+P48167)

>  <pEC50>
7.18

$$$$

// switching to the query compound
The measured pEC50 associated with CN1C(=O)[C@@H]2CN(S(=O)(=O)c3ccc4occc4c3)C[C@@H]2c2cnccc21 reads 6.48

###

experimental-system: Glycine receptor subunit alpha-1 (Homo sapiens)
Sequence (P23415 whole entry): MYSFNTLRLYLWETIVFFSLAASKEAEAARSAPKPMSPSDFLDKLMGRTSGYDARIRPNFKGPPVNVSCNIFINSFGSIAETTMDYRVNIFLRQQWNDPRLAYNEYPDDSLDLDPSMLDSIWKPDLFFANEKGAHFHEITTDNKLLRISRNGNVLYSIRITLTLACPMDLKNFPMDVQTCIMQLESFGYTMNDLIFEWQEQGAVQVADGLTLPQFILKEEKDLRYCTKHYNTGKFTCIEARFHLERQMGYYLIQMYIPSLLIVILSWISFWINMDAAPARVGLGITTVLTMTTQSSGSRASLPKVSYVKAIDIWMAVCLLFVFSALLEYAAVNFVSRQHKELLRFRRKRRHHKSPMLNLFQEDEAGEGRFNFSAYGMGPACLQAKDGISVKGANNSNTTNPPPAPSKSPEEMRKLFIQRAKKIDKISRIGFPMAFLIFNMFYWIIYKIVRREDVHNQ
procedure-summary: Positive allosteric modulation of recombinant human glycine receptor alpha1 expressed in HEK293 cells assessed as increase in glycine-induced current at -60 mV holding potential by whole cell patch-clamp method
Type: cell-based
parameter: EC50 (µM)
The response must be a number in µM with no trailing unit.

Entry C=C[C@]12CN(C)[C@@H]3[C@H]4CO[C@H](C[C@H]41)[C@]1(C(=O)Nc4ccccc41)[C@@H]32 — recorded EC50 = 0.59

###

experimental-system: GABA A receptor alpha-5/beta-3/gamma-2 (Rattus norvegicus, UniProt P18508+P19969+P63079)
Sequence (P18508 whole entry): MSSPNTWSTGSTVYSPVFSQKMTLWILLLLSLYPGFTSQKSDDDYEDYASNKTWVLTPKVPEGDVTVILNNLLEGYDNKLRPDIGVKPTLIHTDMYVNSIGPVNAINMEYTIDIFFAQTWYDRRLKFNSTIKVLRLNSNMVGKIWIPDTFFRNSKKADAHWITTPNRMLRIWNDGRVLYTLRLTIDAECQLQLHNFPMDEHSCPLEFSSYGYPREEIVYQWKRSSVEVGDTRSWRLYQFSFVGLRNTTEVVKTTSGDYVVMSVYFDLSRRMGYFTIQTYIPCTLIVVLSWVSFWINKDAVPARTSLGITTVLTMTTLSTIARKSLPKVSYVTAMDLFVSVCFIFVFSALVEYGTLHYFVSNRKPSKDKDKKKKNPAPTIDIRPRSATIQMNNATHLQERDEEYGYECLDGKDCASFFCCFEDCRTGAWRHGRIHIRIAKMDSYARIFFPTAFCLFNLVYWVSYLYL
Sequence (P19969 whole entry): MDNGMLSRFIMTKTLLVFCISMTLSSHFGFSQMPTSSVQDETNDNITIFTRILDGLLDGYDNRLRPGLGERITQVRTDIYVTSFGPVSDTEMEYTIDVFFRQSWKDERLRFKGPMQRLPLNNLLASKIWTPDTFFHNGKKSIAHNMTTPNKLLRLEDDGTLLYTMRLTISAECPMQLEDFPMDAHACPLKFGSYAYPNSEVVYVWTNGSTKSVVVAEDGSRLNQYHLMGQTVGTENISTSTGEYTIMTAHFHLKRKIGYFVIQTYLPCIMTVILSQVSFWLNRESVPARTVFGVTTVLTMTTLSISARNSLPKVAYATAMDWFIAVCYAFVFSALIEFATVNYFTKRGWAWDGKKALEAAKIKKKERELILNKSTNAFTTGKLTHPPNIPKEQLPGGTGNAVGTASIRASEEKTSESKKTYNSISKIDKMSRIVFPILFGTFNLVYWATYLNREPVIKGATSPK
Sequence (P63079 whole entry): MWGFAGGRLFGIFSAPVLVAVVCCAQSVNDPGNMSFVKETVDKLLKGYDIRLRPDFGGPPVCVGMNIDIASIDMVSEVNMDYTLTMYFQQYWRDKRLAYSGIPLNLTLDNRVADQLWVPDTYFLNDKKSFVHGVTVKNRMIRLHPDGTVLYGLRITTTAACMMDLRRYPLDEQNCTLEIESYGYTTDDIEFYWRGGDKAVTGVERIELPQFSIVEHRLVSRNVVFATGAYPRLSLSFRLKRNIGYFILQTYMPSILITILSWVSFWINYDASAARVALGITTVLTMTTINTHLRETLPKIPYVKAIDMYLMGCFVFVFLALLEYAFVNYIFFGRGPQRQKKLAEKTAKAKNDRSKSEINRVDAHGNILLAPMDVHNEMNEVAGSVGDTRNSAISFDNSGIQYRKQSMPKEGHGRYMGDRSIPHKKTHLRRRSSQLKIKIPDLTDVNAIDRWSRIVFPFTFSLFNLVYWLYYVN
procedure-summary: Displacement of [3H]-flunitrazepam from recombinant rat GABAA receptor alpha5beta3gamma2S expressed in HEK293 cell membranes after 90 mins by liquid scintillation counting method
parameter: Ki (nM)
Just the number in nM, nothing appended.

Input C#Cc1ccc2c(c1)C(c1ccccc1F)=N[C@H](C)c1c(C(=O)NC)ncn1-2 . Output Ki: 55

###

experimental-system: 5-hydroxytryptamine receptor 3A (Homo sapiens)
procedure-summary: Agonist activity at human […] receptor expressed in Xenopus laevis oocytes
Type: cell-based
parameter: EC50 (µM)
Only the number, expressed in µM, is required.

Item: N=C(N)NC(=N)Nc1cccc(Cl)c1 | EC50: 3.8

###

experimental-system: GABA A receptor alpha-2/beta-2/gamma-2 (Homo sapiens, UniProt P18507+P47869+P47870)
Sequence (P47870 whole entry): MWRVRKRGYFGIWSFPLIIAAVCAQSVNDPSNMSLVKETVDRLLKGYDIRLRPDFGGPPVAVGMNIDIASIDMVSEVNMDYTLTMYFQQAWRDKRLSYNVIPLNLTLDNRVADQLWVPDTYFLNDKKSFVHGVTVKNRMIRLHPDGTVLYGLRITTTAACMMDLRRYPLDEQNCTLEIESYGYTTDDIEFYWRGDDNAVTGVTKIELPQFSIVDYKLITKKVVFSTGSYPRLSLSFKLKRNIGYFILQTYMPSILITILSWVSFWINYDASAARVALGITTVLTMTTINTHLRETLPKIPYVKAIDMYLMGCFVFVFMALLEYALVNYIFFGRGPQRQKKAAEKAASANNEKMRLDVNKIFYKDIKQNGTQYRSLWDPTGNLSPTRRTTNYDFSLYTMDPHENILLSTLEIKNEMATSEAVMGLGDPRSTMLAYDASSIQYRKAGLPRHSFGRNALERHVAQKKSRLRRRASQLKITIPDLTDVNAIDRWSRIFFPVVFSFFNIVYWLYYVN
Sequence (P18507 whole entry): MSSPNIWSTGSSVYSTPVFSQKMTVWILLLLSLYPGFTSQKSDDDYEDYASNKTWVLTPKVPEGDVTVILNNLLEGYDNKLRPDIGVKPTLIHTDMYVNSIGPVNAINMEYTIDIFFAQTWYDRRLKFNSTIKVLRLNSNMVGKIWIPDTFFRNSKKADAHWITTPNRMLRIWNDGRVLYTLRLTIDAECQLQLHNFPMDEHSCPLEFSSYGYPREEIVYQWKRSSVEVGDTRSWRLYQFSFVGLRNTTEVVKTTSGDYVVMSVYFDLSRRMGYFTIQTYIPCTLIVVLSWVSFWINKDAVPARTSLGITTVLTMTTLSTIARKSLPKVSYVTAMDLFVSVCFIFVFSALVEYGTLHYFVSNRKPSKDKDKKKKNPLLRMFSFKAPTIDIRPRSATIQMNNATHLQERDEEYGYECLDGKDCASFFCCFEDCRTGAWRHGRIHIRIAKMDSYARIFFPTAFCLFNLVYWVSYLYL
Sequence (P47869 whole entry): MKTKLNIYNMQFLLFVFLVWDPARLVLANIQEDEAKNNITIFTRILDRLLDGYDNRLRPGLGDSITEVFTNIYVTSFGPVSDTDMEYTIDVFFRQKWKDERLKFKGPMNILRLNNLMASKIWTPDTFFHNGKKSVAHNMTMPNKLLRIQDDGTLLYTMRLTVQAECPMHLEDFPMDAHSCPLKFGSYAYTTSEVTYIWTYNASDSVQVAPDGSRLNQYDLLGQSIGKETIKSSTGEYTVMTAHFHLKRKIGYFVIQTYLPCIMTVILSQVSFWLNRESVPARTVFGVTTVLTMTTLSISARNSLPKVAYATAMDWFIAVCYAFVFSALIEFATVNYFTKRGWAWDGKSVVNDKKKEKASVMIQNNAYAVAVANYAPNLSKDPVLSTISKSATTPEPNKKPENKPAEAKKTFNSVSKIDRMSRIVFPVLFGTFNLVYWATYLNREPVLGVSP
procedure-summary: Positive allosteric modulation of recombinant wild type GABAA receptor alpha2beta2gamma2S (unknown origin) expressed in HEK293 cells assessed as potentiation of GABA induced chloride current response treated every 30 secs measured for 2 to 3 secs by patch clamp method
Assay type: cell-based
parameter: pEC50
The read-out pEC50 is expressed as -log10 of concentration in moles per litre.

For this compound ( COc1ccc(C(=O)/C=C/c2cc(OC)ccc2O)cc1 ), measured pEC50 is 5.12

###

experimental-system: GABA-A receptor; alpha-5/beta-3/gamma-2 (Homo sapiens, UniProt P18507+P28472+P31644)
procedure-summary: Displacement of [3H]Ro15-1788 from human GABAA receptor alpha5beta3gamma2 expressed in LTK cells […]
parameter: pKi
Remember the convention: pKi equals -log10 of concentration in molar.

What the record says about COc1ccc(-n2nc3c4cc(Cl)ccc4[nH]cc-3c2=O)cc1 : pKi is 9.52

###

experimental-system: Neuronal acetylcholine receptor; alpha4/beta2 (Homo sapiens, UniProt P17787+P43681)
Sequence (P17787 whole entry): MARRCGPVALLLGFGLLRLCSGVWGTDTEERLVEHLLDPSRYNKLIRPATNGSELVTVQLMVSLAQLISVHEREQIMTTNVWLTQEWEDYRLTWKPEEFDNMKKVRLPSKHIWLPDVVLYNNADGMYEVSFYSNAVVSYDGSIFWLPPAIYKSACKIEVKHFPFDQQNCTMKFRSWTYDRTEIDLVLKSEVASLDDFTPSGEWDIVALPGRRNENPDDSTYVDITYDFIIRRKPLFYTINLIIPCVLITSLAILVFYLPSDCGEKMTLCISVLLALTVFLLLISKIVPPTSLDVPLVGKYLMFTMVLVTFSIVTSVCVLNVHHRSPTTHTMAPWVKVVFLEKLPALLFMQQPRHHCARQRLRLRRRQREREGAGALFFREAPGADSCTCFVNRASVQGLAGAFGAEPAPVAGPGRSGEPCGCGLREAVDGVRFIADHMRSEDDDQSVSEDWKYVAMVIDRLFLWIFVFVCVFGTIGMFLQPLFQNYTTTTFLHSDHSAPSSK
Sequence (P43681 whole entry): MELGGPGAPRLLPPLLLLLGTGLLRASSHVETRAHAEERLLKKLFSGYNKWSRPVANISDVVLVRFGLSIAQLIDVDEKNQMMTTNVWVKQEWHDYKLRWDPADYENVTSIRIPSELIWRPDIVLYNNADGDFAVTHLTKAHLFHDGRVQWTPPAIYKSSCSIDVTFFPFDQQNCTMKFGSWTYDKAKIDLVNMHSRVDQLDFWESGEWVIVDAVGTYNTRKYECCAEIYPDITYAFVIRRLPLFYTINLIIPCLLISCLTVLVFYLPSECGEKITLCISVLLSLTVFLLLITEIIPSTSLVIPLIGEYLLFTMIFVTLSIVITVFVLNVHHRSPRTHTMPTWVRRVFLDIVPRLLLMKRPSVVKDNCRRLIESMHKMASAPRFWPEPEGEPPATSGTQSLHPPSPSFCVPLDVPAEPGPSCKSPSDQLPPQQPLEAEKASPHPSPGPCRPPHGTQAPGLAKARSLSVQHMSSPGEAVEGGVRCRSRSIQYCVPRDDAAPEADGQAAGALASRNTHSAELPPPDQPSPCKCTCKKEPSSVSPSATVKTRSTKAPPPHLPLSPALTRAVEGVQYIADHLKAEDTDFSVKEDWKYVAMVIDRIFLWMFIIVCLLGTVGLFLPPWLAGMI
procedure-summary: Positive allosteric modulation of human (alpha4beta2)2beta2 nAChR expressed in HEK cells preincubated for 15 mins followed by dihydro-beta-erythroidine hydrobromide addition by fluorometric analysis
Assay type: cell-based
parameter: EC50
Please don't drop the unit; write it after the number.

For reference, reported EC50 for O=C(N[C@@H]1CCCNC1)c1cc2cccc(Br)c2s1 stands at 275 nM

###

experimental-system: Glycine receptor subunit alpha-2/beta (Homo sapiens, UniProt P23416+P48167)
procedure-summary: Inhibition of recombinant human glycine receptor alpha2beta expressed in HEK293 cells
Assay type: cell-based
pIC50: −log10 of the molar value.
parameter: pIC50

Input C=C[C@]12CN(C)[C@@H]3[C@H]4CO[C@H](C[C@H]41)[C@]1(C(=O)Nc4ccccc41)[C@@H]32 . Output pIC50: 4.30 to 4.52

###

experimental-system: Glycine receptor alpha-3/beta (Homo sapiens, UniProt O75311+P48167)
procedure-summary: Inhibition of recombinant human glycine receptor alpha3beta expressed in HEK293 cells
pIC50: −log10 of the molar value.
parameter: pIC50

Bench note, Glycine receptor alpha-3/beta (Homo sapiens, UniProt O75311+P48167): entry C=C[C@]12CN(C)[C@@H]3[C@H]4CO[C@H](C[C@H]41)[C@]1(C(=O)Nc4ccccc41)[C@@H]32 , its pIC50 = 4.30 to 4.52

###

experimental-system: Neuronal acetylcholine receptor subunit alpha-7 (Homo sapiens)
procedure-summary: Inhibition of human alpha7 nAChR expressed in Xenopus oocytes at -80 mV holding potential by electro-physiological analysis
parameter: IC50

For C#CCNc1nc(NCCCCC2CCN(Cc3ccccc3)CC2)c(C#N)cc1C#N on Neuronal acetylcholine receptor subunit alpha-7 (Homo sapiens), measured IC50 was 320 nM

###

experimental-system: Neuronal acetylcholine receptor; alpha4/beta2 (Homo sapiens, UniProt P17787+P43681)
procedure-summary: Positive allosteric modulation of human alpha4beta2 nAChR expressed in HEK cells preincubated for 15 mins followed by dihydro-beta-erythroidine hydrobromide addition by fluorometric analysis
Type: cell-based
parameter: EC50

EC50 recorded for this compound, O=C(N[C@@H]1CCCNC1)c1cc2cccc(Br)c2s1 , is 446 nM

###

experimental-system: GABA-A receptor; alpha-2/beta-3/gamma-2 (Homo sapiens, UniProt P18507+P28472+P47869)
Sequence (P18507 whole entry): as the sequence (P18507 whole entry) above
Sequence (P28472 whole entry): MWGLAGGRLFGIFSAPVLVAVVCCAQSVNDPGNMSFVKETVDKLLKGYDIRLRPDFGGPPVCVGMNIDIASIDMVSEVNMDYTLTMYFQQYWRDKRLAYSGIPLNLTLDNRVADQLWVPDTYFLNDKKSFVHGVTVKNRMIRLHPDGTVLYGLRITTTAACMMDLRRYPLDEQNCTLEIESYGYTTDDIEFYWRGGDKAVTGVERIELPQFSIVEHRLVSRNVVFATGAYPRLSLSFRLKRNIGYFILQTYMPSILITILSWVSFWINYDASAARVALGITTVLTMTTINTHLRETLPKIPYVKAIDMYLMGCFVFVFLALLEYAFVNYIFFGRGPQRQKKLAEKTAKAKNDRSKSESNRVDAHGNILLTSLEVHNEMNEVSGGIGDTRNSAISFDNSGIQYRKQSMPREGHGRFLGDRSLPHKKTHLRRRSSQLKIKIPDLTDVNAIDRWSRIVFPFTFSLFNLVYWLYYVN
Sequence (P47869 whole entry): as the sequence (P47869 whole entry) above
procedure-summary: Displacement of [3H]Ro15-1788 from human GABAA receptor alpha2beta3gamma2 expressed in LTK cells […]
parameter: Ki

For reference, reported Ki for COc1ccc(-n2nc3c4cc(Cl)ccc4[nH]cc-3c2=O)cc1 stands at > 10 µM

###

experimental-system: Glycine receptor subunit alpha-3 (Homo sapiens, UniProt O75311)
Sequence (O75311 whole entry): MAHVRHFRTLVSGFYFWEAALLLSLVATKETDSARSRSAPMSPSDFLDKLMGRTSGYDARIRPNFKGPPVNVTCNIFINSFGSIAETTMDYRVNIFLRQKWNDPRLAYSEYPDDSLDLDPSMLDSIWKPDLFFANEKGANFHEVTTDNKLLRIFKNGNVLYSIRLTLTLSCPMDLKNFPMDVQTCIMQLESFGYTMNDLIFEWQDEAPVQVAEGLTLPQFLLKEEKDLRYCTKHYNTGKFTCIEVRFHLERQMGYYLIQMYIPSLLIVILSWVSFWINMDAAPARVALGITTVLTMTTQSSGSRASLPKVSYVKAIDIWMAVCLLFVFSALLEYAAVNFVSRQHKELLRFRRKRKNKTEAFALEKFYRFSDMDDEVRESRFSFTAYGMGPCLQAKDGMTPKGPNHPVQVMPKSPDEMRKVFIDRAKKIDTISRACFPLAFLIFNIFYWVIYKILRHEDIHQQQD
procedure-summary: Positive allosteric modulation of recombinant human glycine receptor alpha3 expressed in CHOK1 cells at -60 mV holding potential by whole cell patch-clamp method
parameter: pEC50
Units for pEC50: none; it is -log10 of a concentration expressed in mol/L.

The reported pEC50 value, Glycine receptor subunit alpha-3 (Homo sapiens, UniProt O75311), for O=S(=O)(NCCOc1cccc2cccnc12)c1ccc(F)cc1 reads 5.41
